Biological target: SARS-CoV-2 nsp14 (Severe acute respiratory syndrome coronavirus 2, UniProt P0DTD1)
Experiment: biochemical
Details: 100 μM
reportedMetric: Percent inhibition at 100 μM, nsp14 (%)

>>> number("Cc1nc2ccc(Cl)cc2cc1C(=O)Nc1ccc(C(N)=O)cc1 [ZINC000019718669]")
49
>>> number("CC(C)(C)c1csc(SCC(=O)Nc2cccc3nsnc23)n1 [Compound 009-639-090]")
16
>>> number("Nc1ncnc2c1ncn2[C@@H]1O[C@H](COS(=O)(=O)NC(=O)c2ccccc2O)[C@@H](O)[C@H]1O [ZINC000028567519]")
28
>>> number("Cn1c(=O)c(=O)n(CC(=O)NCCN(CCc2ccccc2)Cc2ccco2)c2ccccc21 [ZINC000021649685]")
10
>>> number("O=C(CCc1n[nH]c2c1CCCC2)NCc1cc(O)ncn1 [ZINC000952975967]")
2
>>> number("COc1ccc(C2=NN(C(=O)CCc3ccc4c(c3)OCO4)C(O)(C(F)(F)F)C2)cc1 (centres unmarked) [ZINC000016448507]")
9
>>> number("O=C(C1CCc2sc(-c3ccncc3)nc2C1)N1CCc2c(nc[nH]c2=O)C1 (centres unmarked) [ZINC1772809556]")
15
>>> number("O=C(CC1(O)C(=O)N(Cc2ccc3c(c2)OCO3)c2ccccc21)c1ccc(F)cc1 (centres unmarked) [ZINC000000783765]")
-10

---

Target: SARS-CoV-2 nsp14 (Severe acute respiratory syndrome coronavirus 2)
Assay: biochemical
Conditions: estimated from IC50 values
Output 1 for records whose Ligand Efficiency (LE) nsp14 is lower than 0.3 kcal/mol, -1 for records at or above 0.3 kcal/mol.

>>> classname("Nc1ncnc2c1ncn2[C@@H]1O[C@H](CSCC[C@H](N)C(=O)O)[C@@H](O)[C@H]1O [S-(5′-Adenosyl)-L-homocysteine (SAH), S-(5′-Adenosyl)-L-homocysteine, reference compound]")
-1
>>> classname("Cc1nc(O)cc(CNc2nc3c(c(=O)[nH]2)Cc2ccccc2OC3)n1 [ZINC000095519272]")
1
>>> classname("Nc1ncnc2c1ncn2[C@@H]1O[C@H](C(=O)N2CCN(CC(=O)Nc3cccc4c3CNC4=O)CC2)[C@@H](O)[C@H]1O [ZINC000017654909]")
1
>>> classname("CCNC(=O)NCCSC[C@H]1O[C@@H](n2cnc3c(N)ncnc32)[C@H](O)[C@@H]1O [ZINC473112262]")
1
>>> classname("Cc1ccc(S(=O)(=O)OC[C@H]2O[C@@H](n3cnc4c(N)ncnc43)[C@H](O)[C@@H]2O)cc1 [ZINC3861767]")
1
>>> classname("CSC[C@H]1O[C@@H](n2cnc3c(N)ncnc32)[C@H](O)[C@@H]1O [ZINC4228245]")
-1
>>> classname("O=C(Cc1csc(SCC(=O)c2ccccc2)n1)Nc1cccc2nsnc12 [ZINC38661771]")
1

---

Target: SARS-CoV-2 nsp14 (Severe acute respiratory syndrome coronavirus 2)
Test: biochemical
Conditions: 100 μM
reportedMetric: Percent inhibition at 100 μM, nsp14 (%)

>>> number("O=C(CC1(C(=O)O)CC(c2ccc(F)cc2)=NO1)Nc1cccc(C(=O)O)c1 (stereo not drawn)")
14
>>> number("Nc1ncnc2c1ncn2[C@@H]1O[C@H](C(=O)N2CCN(CC(=O)Nc3cccc4c3CNC4=O)CC2)[C@@H](O)[C@H]1O")
62
>>> number("CC(=O)Nc1ccn(C2OC(CO)C(O)C2O)c(=O)n1 (stereo not drawn)")
-15
>>> number("NS(=O)(=O)c1ccc(NC(=O)COC(=O)c2n[nH]c3ccccc23)cc1")
-15
>>> number("O=C(CSc1nc(CC(=O)Nc2cccc3nsnc23)cs1)Nc1ccc(F)cc1")
25
>>> number("O=C(CCn1cncn1)N1CCC(c2nc3ccccc3s2)CC1")
2
